Items are presented alongside their recorded growth.
test system: Klebsiella aerogenes DSM 30053; assay: growth (OD595) fold change vs plate DMSO controls (fold change (ratio)); higher = more growth; conditions: incubation time: 27 h, anaerobic, 37 °C
Where a name gives a salt, the structure may show the parent alone.

| molecule | subject.of.test | growth |
| --- | --- | --- |
| COc1c(O[C@@H]2O[C@H](CO)[C@@H](O)[C@H](O)[C@H]2O)cc2c(c1OC)-c1ccc(SC)c(=O)cc1[C@@H](NC(C)=O)CC2 [Thiocolchicoside] (20 µM) | Klebsiella aerogenes DSM 30053 | 0.975 |
| NS(=O)(=O)c1cc2c(cc1Cl)NC(Cc1ccccc1)NS2(=O)=O (stereo not given) [Benzylhydrochlorothiazide] (20 µM) | Klebsiella aerogenes DSM 30053 | 0.986 |
| CCN1C(=O)NC(c2ccccc2)C1=O (stereo not given) [Ethotoin] (20 µM) | Klebsiella aerogenes DSM 30053 | 0.982 |
| CCC(=O)O[C@@H]1CC(=O)O[C@H](C)C/C=C/C=C/[C@H](O)[C@H](C)C[C@H](CC=O)[C@H](O[C@@H]2O[C@H](C)[C@@H](O[C@H]3C[C@@](C)(O)[C@@H](OC(=O)CC)[C@H](C)O3)[C@H](N(C)C)[C@H]2O)[C@H]1OC [Midecamycin] (20 µM) | Klebsiella aerogenes DSM 30053 | 0.965 |
| CCCCCN(C)CCC(O)(P(=O)(O)O)P(=O)(O)O [Ibandronate sodium] (20 µM) | Klebsiella aerogenes DSM 30053 | 0.973 |
| C=CC(N)CCC(=O)O (stereo not given) [Vigabatrin hydrochloride] (20 µM) | Klebsiella aerogenes DSM 30053 | 1.17 |
| CCOC(=O)[C@H](CCc1ccccc1)N[C@@H](C)C(=O)N(CC(=O)O)C1Cc2ccccc2C1 [Delapril Hydrochloride] (20 µM) | Klebsiella aerogenes DSM 30053 | 0.982 |
| O=C(N[C@H](CO)[C@H](O)c1ccc([N+](=O)[O-])cc1)C(Cl)Cl [Chloramphenicol] (20 µM) | Klebsiella aerogenes DSM 30053 | 0.0799 |
| CN(C)CCOC(c1ccccc1)c1ccccc1.Cn1c(=O)c2[nH]c(Cl)nc2n(C)c1=O [Dimenhydrinate] (20 µM) | Klebsiella aerogenes DSM 30053 | 0.954 |
| C[C@@H]1O[C@@H](O[C@H]2[C@H](Oc3cc(O)c(C(=O)CCc4ccc(O)cc4)c(O)c3)O[C@H](CO)[C@@H](O)[C@@H]2O)[C@H](O)[C@H](O)[C@H]1O [Naringin Dihydrochalcone] (50 µM) | Klebsiella aerogenes DSM 30053 | 1.05 |
| COc1c2occc2c(OC)c2c(=O)cc(C)oc12 [Khellin] (20 µM) | Klebsiella aerogenes DSM 30053 | 1.03 |
| O=C(OCC(O)CO)c1ccccc1Nc1ccnc2cc(Cl)ccc12 (stereo not given) [Glafenine hydrochloride] (20 µM) | Klebsiella aerogenes DSM 30053 | 0.977 |
| N#Cc1cc(NC(=O)C(=O)O)c(Cl)c(NC(=O)C(=O)O)c1 [Lodoxamide] (20 µM) | Klebsiella aerogenes DSM 30053 | 1.01 |
| Nc1ccn([C@@H]2O[C@H](CO)[C@@H](O)[C@@H]2O)c(=O)n1 [Cytarabine] (20 µM) | Klebsiella aerogenes DSM 30053 | 1.03 |
| Cc1cnc(C(=O)O)c[n+]1[O-] [Acipimox] (20 µM) | Klebsiella aerogenes DSM 30053 | 1.27 |
